Origin of values: patent US20250388664A1

# TARGET OF ASSAY: T1, truncated hTfR1 of SEQ ID NO:122 (human, UniProt P02786 122-760)
# T1 construct: also called human TfR1; Human TfR1
# T1 sequence (P02786 other isoform, or with tags, fused parts or gaps limits assumed): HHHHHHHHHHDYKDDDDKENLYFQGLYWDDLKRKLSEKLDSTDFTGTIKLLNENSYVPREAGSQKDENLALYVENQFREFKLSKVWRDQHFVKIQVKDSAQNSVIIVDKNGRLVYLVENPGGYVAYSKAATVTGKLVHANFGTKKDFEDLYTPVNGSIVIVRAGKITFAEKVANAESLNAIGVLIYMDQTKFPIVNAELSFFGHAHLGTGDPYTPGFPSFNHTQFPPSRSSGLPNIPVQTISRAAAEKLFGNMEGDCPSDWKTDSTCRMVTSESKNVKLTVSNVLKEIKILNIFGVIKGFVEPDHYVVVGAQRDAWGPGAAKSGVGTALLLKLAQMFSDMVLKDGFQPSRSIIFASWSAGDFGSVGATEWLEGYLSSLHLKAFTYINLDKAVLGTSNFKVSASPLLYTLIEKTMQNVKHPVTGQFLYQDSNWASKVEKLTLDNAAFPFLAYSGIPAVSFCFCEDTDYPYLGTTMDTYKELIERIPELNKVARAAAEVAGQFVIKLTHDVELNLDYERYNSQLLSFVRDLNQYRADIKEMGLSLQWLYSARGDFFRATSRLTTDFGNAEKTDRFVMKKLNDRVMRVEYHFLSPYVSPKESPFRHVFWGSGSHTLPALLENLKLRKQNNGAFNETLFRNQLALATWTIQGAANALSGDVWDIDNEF
# TEST SUMMARY: SPR follow-up, 4 replicates, FLAG-captured hTfR1, scFv injected
REPORTED PROPERTY: koff

{"columns": ["BINDER", "MEASUREMENT"],
 "data": [
  ["h26D3 HC6 DS V11R T120K (scFv, also called h26D3 DS V11R T120K) scFv: HHHHHHGGGGSGGGGSGGGGSGGGGSDIQMTQSPSSVSASVGDRVTITCKSSQSLLYSTNQKNYLAWYQQKPGKAPKLLIYWASTRESGVPSRFSGSGSGTDFTLTISSLQPEDFATYYCQQYFIYPRTFGCGTKVEIKGGGGSGGGGSGGGGSGGGGSEVQLVQSGAERKKPGSSVKVSCKASGYIFTDYNMDWVRQAPGQCLEWIGDINPDADTTSYNEKFKGRATLTVDKSTSTAYMELSSLRSEDTAVYYCARGGYSGSSYYHPMDYWGQGTLVKVSS", "0.00449 s⁻¹"]
]}
